test: yeast display, Sf9 membrane polyspecificity reagent, FACS + sequencing; frameworks hold sequencing errors
quantityName: polyreactivity (PSR sort gate)

Example cases with answers are listed next.
QVQIVESGGRLVQAAGRLSLTCAASGSIFVWNAMGWYRQEPGKEREVVAAITNIGGRTYYADSVKGRFTISRDNAKYTVYLQMNSQKPEATAGYYCNSDLVSRLGWSTTSDSWGQGTQVTVSS :: high polyreactivity
QDQLVESGGGLVQAGGSLRLSCAASGRIFRRNTQGWSRQAPGKERELVAAITSSGGSTFADSVKGRFTISRDNAKNTVYLQMNSLKPEDTAVYYCATYVAYHRGYRTYDHWGQGTQVTVSS :: low polyreactivity
QVQLVESGGGLVQAGGSLRLSCAASGFTFQAYAMGWYRQAPGKERELVAAINFSTGRTYYADSVKGRFTISRDNAKNTVYLQMNSLKPEDTAVYYCAADGSWTRSYDFDYWGQGTQLTVSS :: high polyreactivity
QVQLVESGGGLVQAGGSLRLSCAASGRIFYYNDMGWYRQAPGKERELVATITIGNSTNYADSVKGRFTISRDNAKNTVYLQMKSLKPEDTAVYYCNADYSDVTTGDWRYENDYWGQGTQVTVSS :: low polyreactivity
QVQLEESGGGLVQAGGSLRLSCAASGSTFFLYAMGWYRQAPGKERELVAAITYTDGDTYYADSVKGRFTISRDNAKNTVYLQMNSLKPEDTAVYYCNAGGDEPVYGSGYDYWGQGTQVTVSS :: low polyreactivity
QVQLVESGGGLVQAGGSLRLSCAASGNIFDPYAMGWYIQAPGKERELVAVINASGDSTYYADSVKGRFTISRDNAKNTVYLQMNSLKPEDTAVYYCAADHRGEYDYWGQGTQVTVSS :: low polyreactivity

Next sequence, please.
## Task Entry under review: QVQLVESGGGLVQAGGSLRLSCAASGSIFGVNMGWYRQAPGKERELVASITSGGSTNYADSVKGRFTISRDNAKNTVYLQMNSLKPEDTAVYYCATDRYVWGQGTQVTVSS . Reported polyreactivity (PSR sort gate)?
## Result low polyreactivity

====

experiment: yeast display, Sf9 membrane polyspecificity reagent, FACS + sequencing; frameworks hold sequencing errors
quantityName: polyreactivity (PSR sort gate)

Example cases with answers are listed next.
QVQLVDSGGGLVQAGGSLRLSCAASGSTFALYAMGWYRQAPGKERELVAAITWSGTGTYYADSVKGRFTISRDNAKNTVYLQMNSLKPEDTAVYSCNAEYWWWGLGNDYWGQGTQVTVSS :: low polyreactivity
QVQLVESGGGLVQAGGSLRLSCAASGRTFWRYAMGWYRQAPGKERELVATISSGGSTNYADSVKGRFTISRDNAKNTVYLQMNSLKPEDTAVYYCNAEYSYYDLLAYDYWGQGTQVTVSS :: low polyreactivity
QVQLVESGGGLVQAGGSLRLSCAASGSIFSSYAMGWSRQAPGKERELVAAISSGDSTYYADSVKGRFTISRDNAKTTVYLQMNSLKPEDTAVYYCAAPWYAWGQGTQVTVSS :: low polyreactivity
QVQHVESGGGLVQAGGSLRLSCAASGRTSKKYVMGWYRQAPGKERELVATLNWSGGSTYYADSVKGRFTISRDNAKNTVYLQMNSLKPEDTAVYYCAARSEFYWGWEYITYDYWGQGTQVTVSS :: low polyreactivity
QVQLVESGGGLVQAGGSLRLSCAASGINFVKYTMGWYRQAPGKERELVAAITWTVGSTYYADSVKGRFTISRDNAKNTVYFQMNSLKPEDTAVYYCAARYYYWGQGTQVTGSS :: high polyreactivity
QVQLVESAGGFVQAGGSLRLSCAASGSIFTINAMGWYTQAPGKERELVAGIRWRGGSTYYADSVKGRVTISRDNAKNTVYFQMNSLKPEDTAVYYCNTRCLIRKFDYWGQGTQVTVSS :: high polyreactivity
QDQLVESGGGLVQAGGSLRLICAASGYTFGHYVMGWYRQAPGKERELVAAITLSGGGTYYADSVKGRFTISRDNAKNTVYLQMNCLKPEDTAVYYCAAVGGEHAKKTYSRYKVDYWGQGTQVTVSS :: low polyreactivity
QVHLVESGGGLVHAGGSLRLSCAASGSTFPGYGMGWYRQAPGQERELVATNRNGGITNYADSVKGRFTISRDNAKNTVYLQMNSLKAEDTAVYYCAADVVQYLYYFRLDYWGQGTQVTVSS :: low polyreactivity
QVQLVESGGGLVQAGGSLRLSCAASGRIFGFNTMGWYRQAPGKERELVAAITSRDGRTYYADSVKGRFTISRDNAKNTVYLQMNSLKPEDTAVYYCATQYRWYAESHGLVTSVIMYSWGQGTQVTVSS :: low polyreactivity
QVHLVESGGGLGHAGGSLLLSCAASGSIFGRNAMGWYRQAPGKERELVADIWNGGSTYYADSVKGRFTISRDNAKNTVYLQMNILKPEDTAVYYCNADANDDGRFGGYIKYDYWGQGTQVTVSS :: low polyreactivity

Next sequence, please.
## Task Entry under review: QVQLVESGGGLVQAGGSLRLSCAASGSTFGRYAMGWYRQAPGKERELVAGISRGGTTYYADSVKGRFTISRDNAKNTVYLQLNSLKPEDTAVYYCAKLRWPVFDYWGQGTQVTVSS . Reported polyreactivity (PSR sort gate)?
## Result high polyreactivity
